experiment: Drug level in duct cannulated rat bile at 5 mg/kg, iv; format: ADME, organism-based; parameters: dose 5 mg/kg, route intravenous; conditions: in vivo, read-out: Drug uptake
endpointLabel: concentration (µM)
Give the quantity in µM, number only.

In: I would be grateful if you could share the reported concentration for CC(=O)c1cc(F)cc2c3c(n(Cc4ccc(Cl)cc4)c12)C(CC(=O)O)CC3 (stereo not drawn) .
Out: 81

In: What do you get for CC(=O)c1cc(S(C)(=O)=O)cc2c3c(n(Cc4ccc(Cl)cc4)c12)[C@@H](CC(=O)O)CC3 ?
Out: 1100

In: Please give the result for CS(=O)(=O)c1cc(F)cc2c3c(n(Cc4ccc(Cl)cc4)c12)C(CC(=O)O)CC3 (stereo not drawn) [DIASTEREOMER 2] too.
Out: 103
